Biological target: human F508del CFTR (Homo sapiens, UniProt P13569, DEL508-508)
Sequence (P13569 with tags, fused parts or gaps DEL508-508): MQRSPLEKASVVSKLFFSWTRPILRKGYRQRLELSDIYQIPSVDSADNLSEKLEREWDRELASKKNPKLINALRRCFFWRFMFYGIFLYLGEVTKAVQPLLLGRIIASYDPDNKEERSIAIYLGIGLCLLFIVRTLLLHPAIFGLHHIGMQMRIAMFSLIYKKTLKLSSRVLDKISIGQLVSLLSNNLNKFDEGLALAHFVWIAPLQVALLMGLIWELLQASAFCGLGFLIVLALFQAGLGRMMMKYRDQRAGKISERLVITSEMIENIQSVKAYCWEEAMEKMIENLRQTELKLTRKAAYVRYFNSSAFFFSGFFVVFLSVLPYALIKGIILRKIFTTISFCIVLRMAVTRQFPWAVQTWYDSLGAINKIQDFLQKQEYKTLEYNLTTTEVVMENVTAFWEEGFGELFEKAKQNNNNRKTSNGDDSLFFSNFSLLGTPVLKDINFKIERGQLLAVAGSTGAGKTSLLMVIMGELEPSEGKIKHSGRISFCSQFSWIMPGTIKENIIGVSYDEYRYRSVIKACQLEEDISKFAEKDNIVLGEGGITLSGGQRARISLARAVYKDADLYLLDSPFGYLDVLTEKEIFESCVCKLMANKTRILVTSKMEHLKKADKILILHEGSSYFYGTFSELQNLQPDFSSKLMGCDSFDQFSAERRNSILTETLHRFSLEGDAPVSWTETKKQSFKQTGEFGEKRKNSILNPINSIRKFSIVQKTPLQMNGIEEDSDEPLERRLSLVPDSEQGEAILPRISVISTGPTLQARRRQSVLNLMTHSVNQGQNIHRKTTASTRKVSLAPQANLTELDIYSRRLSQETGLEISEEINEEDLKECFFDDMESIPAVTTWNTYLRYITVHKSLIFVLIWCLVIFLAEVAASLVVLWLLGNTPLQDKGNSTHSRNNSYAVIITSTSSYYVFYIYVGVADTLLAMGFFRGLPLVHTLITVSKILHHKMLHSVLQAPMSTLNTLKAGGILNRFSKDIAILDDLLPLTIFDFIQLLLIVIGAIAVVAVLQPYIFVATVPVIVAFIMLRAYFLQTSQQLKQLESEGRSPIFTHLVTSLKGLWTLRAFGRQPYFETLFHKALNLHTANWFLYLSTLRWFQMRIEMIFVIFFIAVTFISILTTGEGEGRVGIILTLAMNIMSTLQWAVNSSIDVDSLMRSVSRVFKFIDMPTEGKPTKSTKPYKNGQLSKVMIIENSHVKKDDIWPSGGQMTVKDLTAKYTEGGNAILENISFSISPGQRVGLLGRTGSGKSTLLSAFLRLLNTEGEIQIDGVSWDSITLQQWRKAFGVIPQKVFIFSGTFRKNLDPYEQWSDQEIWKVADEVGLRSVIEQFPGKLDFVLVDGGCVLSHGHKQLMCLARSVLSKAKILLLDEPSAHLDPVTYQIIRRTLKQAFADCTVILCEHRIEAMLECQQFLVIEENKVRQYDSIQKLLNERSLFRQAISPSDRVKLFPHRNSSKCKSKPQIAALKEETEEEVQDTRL
Experiment: CFTR-YFP High Throughput Assay
Details: FRT cells expressing human F508del CFTR and YFP
Experimental: Assays for Detecting and Measuring the Effect of Compounds on F508del-CFTR Channels CFTR-YFP High Throughput Assay-CFTR Corrector Protocol: […] YFP fluorescence intensity values are acquired at high speed before and after iodide buffer is injected to the assay cells. Iodide enters the cells via active CFTR channels in the plasma membrane, and quenches the YFP fluorescence. The rate of fluorescence quenching is proportionate to the total CFTR activity in the cell membrane. […]
REPORTED ENDPOINT: EC50

{"columns": ["COMPOUND", "RESULT"],
 "data": [
  ["CCN(C(=O)Cn1ncc2c(c1=O)c1ccccc1n2Cc1ccc(C#N)cc1)c1ccc2c(c1)OC(F)(F)O2 [Example 144]", "10 to 20 µM"],
  ["Cc1nc2ccc(N(C)C(=O)Cn3ncc4c(c3=O)c3ccccc3n4Cc3ccc(Cl)cc3)cc2o1 [Example 147]", "< 10 µM"],
  ["CC(C)N(C(=O)c1nn(Cc2ccccc2)c(=O)c2c1c1ccccc1n2C)c1ccccc1 [Example 212]", "< 10 µM"],
  ["CCN(CC)C(=O)c1nn(CC(O)COCc2ccccc2)c(=O)c2c1c1c(F)cccc1n2C (stereo not shown) [Example 234]", "< 10 µM"],
  ["Cn1c2ccccc2c2c(-c3ccccc3)nn(-c3ccccc3F)c(=O)c21 [Example 237]", "> 20 µM"],
  ["Cc1nc2ccc(N(C(=O)Cn3nc(-c4cccc(Cl)c4)c4ccc(O)cc4c3=O)C3CC3)cc2o1 [Example 100]", "< 10 µM"],
  ["CCc1ccc(N(CC)C(=O)Cn2nc(-c3ccc(C(=O)O)cc3)c3ccccc3c2=O)cc1 [Example 14]", "> 20 µM"],
  ["CCc1ccc(N(CC)C(=O)Cn2nc(-c3ccc(C(N)=O)cc3)c3ccccc3c2=O)cc1 [Example 12]", "> 20 µM"],
  ["CCOc1cccc2c(=O)n(CC(=O)N(CC)c3ccc4c(c3)OC(F)(F)O4)nc(Cc3cccnc3)c12 [Example 58]", "< 10 µM"],
  ["COc1ccc(C2(C(=O)Cn3nc(-c4cccc(Cl)c4)c4ccc(OC)cc4c3=O)CC2)cc1 [Example 251]", "< 10 µM"],
  ["CCN(C(=O)Cn1ncc2c(c1=O)c1ccccc1n2Cc1ccc(C#N)c(F)c1)c1ccc2c(c1)OC(F)(F)O2 [Example 145]", "< 10 µM"],
  ["CCN(C(=O)c1nn(CC(=O)N2CCCCC2)c(=O)c2c1c1ccccc1n2C)c1ccccc1 [Example 214]", "< 10 µM"],
  ["Cc1ccc(-n2nc(-c3ccccc3)c3c4ccccc4n(C)c3c2=O)cc1 [Example 236]", "> 20 µM"],
  ["CCN(C(=O)c1nn(C)c(=O)c2c1c1ccccc1n2C)c1ccccc1 [Example 207]", "< 10 µM"],
  ["CCN(C(=O)c1nn(-c2ccc(C)cc2)c(=O)c2c1c1sc(C)cc1n2C)c1ccccc1 [Example 245]", "< 10 µM"],
  ["CCN(C(=O)Cn1nc(C(=O)N(C)c2ccccn2)c2ccccc2c1=O)c1ccc2c(c1)OC(F)(F)O2 [Example 127]", "< 10 µM"]
]}

Attribution: patent US10370366B2
